# Method: Study No. 15-4 toxicokinetics of fospropofol and propofol in plasma
# Assay type: in vivo, Beagle dogs
# Condition details: female, beagle, dog, plasma, po, 100 mg/kg, oral gavage fospropofol disodium; Female; 100 mg/kg; Day 1; read-out: Fospropofol AUC0-6 hr
Quantity kind: AUC(0-t) (ng·h/mL)
Numbers only here, please. The scale is ng·h/mL.

Problem: Can you look up the measured AUC(0-t) of CC(C)c1cccc(C(C)C)c1OCOP(=O)(O)O for me?
Result: 11900

###

# Method: Study A16 Part 1: PK of single ascending oral doses of fospropofol disodium (200 to 2000 mg), fasted healthy adults
# Format: in vivo, human
# Condition details: both sexes, human, plasma, po, 2000 mg, Propofol Tmax, oral fospropofol disodium 2000 mg; median
Quantity kind: Tmax (min)
Numbers only here, please. The scale is min.

Problem: Can you look up the measured Tmax of CC(C)c1cccc(C(C)C)c1O for me?
Result: 45

###

# Method: Study A16 Part 1: PK of single ascending oral doses of fospropofol disodium (200 to 2000 mg), fasted healthy adults
# Assay type: in vivo, human
# Condition details: both sexes, human, plasma; oral fospropofol disodium 400 mg; mean; read-out: Fospropofol AUC0-∞
Quantity kind: AUC(0-inf)
Kindly report the value followed by its unit.

Problem: Can you look up the measured AUC(0-inf) of CC(C)c1cccc(C(C)C)c1OCOP(=O)(O)O for me?
Result: 2230 ng·h/mL

###

# Method: Study A16 Part 1: PK of single ascending oral doses of fospropofol disodium (200 to 2000 mg), fasted healthy adults
# Format: in vivo, human
# Condition details: both sexes, human, plasma, po, 1600 mg, oral fospropofol disodium 1600 mg; median; read-out: Fospropofol Tmax
Quantity kind: Tmax (min)
Numbers only here, please. The scale is min.

Problem: Can you look up the measured Tmax of CC(C)c1cccc(C(C)C)c1OCOP(=O)(O)O [fospropofol] for me?
Result: 19.8

###

# Method: Study No. 15-4 toxicokinetics of fospropofol and propofol in plasma
# Format: in vivo, Beagle dogs
# Condition details: female, beagle, dog, plasma, po, 160 mg/kg, oral gavage fospropofol disodium; Female; 160 mg/kg; Day 1
Quantity kind: Cmax (µg/mL)
Numbers only here, please. The scale is µg/mL.

Problem: Can you look up the measured Cmax of CC(C)c1cccc(C(C)C)c1OCOP(=O)(O)O [fospropofol] for me?
Result: 7.38

###

# Method: Study A16 Part 1: PK of single ascending oral doses of fospropofol disodium (200 to 2000 mg), fasted healthy adults
# Format: in vivo, human
# Condition details: female, human, plasma, oral, 800 mg, females only (800 mg cohort); Mean; read-out: Fospropofol Tmax
Quantity kind: Tmax (min)
Numbers only here, please. The scale is min.

Problem: Can you look up the measured Tmax of CC(C)c1cccc(C(C)C)c1OCOP(=O)(O)O [fospropofol] for me?
Result: 22.2

###

# Method: Study A16 Part 1: PK of single ascending oral doses of fospropofol disodium (200 to 2000 mg), fasted healthy adults
# Type: in vivo, human
# Condition details: both sexes, human, plasma; oral fospropofol disodium 1600 mg; mean; read-out: Fospropofol AUC0-∞
Quantity kind: AUC(0-inf) (ng·h/mL)
Numbers only here, please. The scale is ng·h/mL.

Problem: Can you look up the measured AUC(0-inf) of CC(C)c1cccc(C(C)C)c1OCOP(=O)(O)O for me?
Result: 6300

###

# Method: Study No. 15-4 toxicokinetics of fospropofol and propofol in plasma
# Type: in vivo, Beagle dogs
# Condition details: male, beagle, dog, plasma, po, 100 mg/kg, oral gavage fospropofol disodium; Male; 100 mg/kg; Day 14; read-out: Fospropofol AUC0-6 hr
Quantity kind: AUC(0-t) (ng·h/mL)
Numbers only here, please. The scale is ng·h/mL.

Problem: Can you look up the measured AUC(0-t) of CC(C)c1cccc(C(C)C)c1OCOP(=O)(O)O for me?
Result: 6340

###

# Method: Study No. 15-4 toxicokinetics of fospropofol and propofol in plasma
# Type: in vivo, Beagle dogs
# Condition details: female, beagle, dog, plasma, po, 50 mg/kg, oral gavage fospropofol disodium; Female; 50 mg/kg; Day 1; read-out: Fospropofol AUC0-6 hr
Quantity kind: AUC(0-t) (ng·h/mL)
Numbers only here, please. The scale is ng·h/mL.

Problem: Can you look up the measured AUC(0-t) of CC(C)c1cccc(C(C)C)c1OCOP(=O)(O)O for me?
Result: 4710

###

# Method: Study No. 15-3 toxicokinetics of fospropofol and propofol in plasma
# Format: in vivo, Sprague-Dawley rats
# Condition details: female, Sprague-Dawley, rat, plasma, po, 250 mg/kg, oral gavage fospropofol disodium; Female; 250 mg/kg; Day 1; read-out: Fospropofol Tmax
Quantity kind: Tmax (min)
Numbers only here, please. The scale is min.

Problem: Can you look up the measured Tmax of CC(C)c1cccc(C(C)C)c1OCOP(=O)(O)O for me?
Result: 4.98

###

# Method: Study A17: PK of fospropofol and propofol after single oral dose of fospropofol disodium 800 mg in subjects with migraine
# Condition details: female, human, plasma, po, 800 mg, Fospropofol AUC1, Mean, Mean, N = 12 migraine subjects; Fospropofol Disodium 800 mg oral
Quantity kind: AUC (ng·h/mL)
Numbers only here, please. The scale is ng·h/mL.

Problem: Can you look up the measured AUC of CC(C)c1cccc(C(C)C)c1OCOP(=O)(O)O [fospropofol] for me?
Result: 3080

###

# Method: Study A17: PK of fospropofol and propofol after single oral dose of fospropofol disodium 800 mg in subjects with migraine
# Condition details: female, human, plasma, po, 800 mg, Fospropofol AUC2, Mean, Mean without Subject 6008 (below limit of quantitation at all time points); Fospropofol Disodium 800 mg oral
Quantity kind: AUC (ng·h/mL)
Numbers only here, please. The scale is ng·h/mL.

Problem: Can you look up the measured AUC of CC(C)c1cccc(C(C)C)c1OCOP(=O)(O)O for me?
Result: 4310

###

# Method: Study No. 15-3 toxicokinetics of fospropofol and propofol in plasma
# Type: in vivo, Sprague-Dawley rats
# Condition details: male, Sprague-Dawley, rat, plasma, po, 50 mg/kg, oral gavage fospropofol disodium; Male; 50 mg/kg; Day 1; read-out: Fospropofol Cmax
Quantity kind: Cmax (ng/mL)
Numbers only here, please. The scale is ng/mL.

Problem: Can you look up the measured Cmax of CC(C)c1cccc(C(C)C)c1OCOP(=O)(O)O for me?
Result: 178

###

# Method: Study A16 Part 1: PK of single ascending oral doses of fospropofol disodium (200 to 2000 mg), fasted healthy adults
# Type: in vivo, human
# Condition details: both sexes, human, plasma; oral fospropofol disodium 2000 mg; mean; read-out: Fospropofol t1/2 (converted)
Quantity kind: half-life

Problem: Can you look up the measured half-life of CC(C)c1cccc(C(C)C)c1OCOP(=O)(O)O [fospropofol] for me?
Result: 22.2 min

###

# Method: Study No. 15-4 toxicokinetics of fospropofol and propofol in plasma
# Type: in vivo, Beagle dogs
# Condition details: female, beagle, dog, plasma, po, 100 mg/kg, oral gavage fospropofol disodium; Female; 100 mg/kg; Day 14; read-out: Fospropofol AUC0-6 hr
Quantity kind: AUC(0-t)
Kindly report the value followed by its unit.

Problem: Can you look up the measured AUC(0-t) of CC(C)c1cccc(C(C)C)c1OCOP(=O)(O)O for me?
Result: 15100 ng·h/mL

###

# Method: Study No. 15-4 toxicokinetics of fospropofol and propofol in plasma
# Type: in vivo, Beagle dogs
# Condition details: male, beagle, dog, plasma, po, 160 mg/kg, oral gavage fospropofol disodium; Male; 160 mg/kg; Day 1
Quantity kind: Cmax (ng/mL)
Numbers only here, please. The scale is ng/mL.

Problem: Can you look up the measured Cmax of CC(C)c1cccc(C(C)C)c1OCOP(=O)(O)O for me?
Result: 10000

###

# Method: Study A16 Part 1: PK of single ascending oral doses of fospropofol disodium (200 to 2000 mg), fasted healthy adults
# Type: in vivo, human
# Condition details: both sexes, human, plasma, po, 1200 mg, oral fospropofol disodium 1200 mg; Fasted (Cohort 5), n = 10; median; read-out: Fospropofol Tmax
Quantity kind: Tmax
Kindly report the value followed by its unit.

Problem: Can you look up the measured Tmax of CC(C)c1cccc(C(C)C)c1OCOP(=O)(O)O [fospropofol] for me?
Result: 19.8 min

###

# Method: Study No. 15-3 toxicokinetics of fospropofol and propofol in plasma
# Type: in vivo, Sprague-Dawley rats
# Condition details: male, Sprague-Dawley, rat, plasma, po, 250 mg/kg, oral gavage fospropofol disodium; Male; 250 mg/kg; Day 1; read-out: Fospropofol Tmax
Quantity kind: Tmax (min)
Numbers only here, please. The scale is min.

Problem: Can you look up the measured Tmax of CC(C)c1cccc(C(C)C)c1OCOP(=O)(O)O for me?
Result: 4.98
